Biological target: T1, extracellular domain of activin receptor type IIB (ActRIIBecd), biotinylated (Homo sapiens (Human), UniProt Q13705 27-117, amino-biotinylated with amine-PEG3-Biotin)
T1 construct: immobilised on a streptavidin-coated sensor chip; also called biotinylated ActRIIBecd; extracellular domain of ActRIIB
T1 sequence: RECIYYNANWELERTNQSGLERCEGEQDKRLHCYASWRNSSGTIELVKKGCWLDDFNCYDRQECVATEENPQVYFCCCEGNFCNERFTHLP
Assay: BIAcore SPR, biotinylated ActRIIBecd on chip; SD ±13.42 nM
Protocol: Biosensor experiments. In one embodiment, experiments were performed on a BIAcore™ T100/T200 instrument (Pharmacia Biosensor AB) in the multichannel mode (serial flow path involving flow cells 1+2+3+4). Flow rate was 10 μl/min; temperature was 25° C.; and data were recorded at 2.5 points/s. All four segments of a sensor chip CMS were coated with streptavidin (Sigma) to a density of 2000 pg/mm² (2000 resonance units) by the aminocoupling procedure. […]
Endpoint name: pKd
Note on pKd: it is the negative log10 of concentration, concentration in mol/L.

Query string: # get_value(readout='pKd', item= Recombinant polypeptide of clones 8 + 19 (designed binder) GQAKRKGYKRLKSSCKRHPLYNSKDPKACCVPTELSAPSPLYLDENEKPVLKNYQDMVVHGCGCR )
Result string: 7.51
